Reported CC50 at 24 h by item:
experiment: in vitro; settings: human, Huh-7 cells
Give the number; µM is assumed, so skip it.

Please review the following examples before continuing.
| molecule | CC50 at 24 h / µM |
| --- | --- |
| C[C@H]1[C@H](C)CC[C@]2(C(=O)O)CC[C@]3(C)C(=CC[C@@H]4[C@@]5(C)C[C@@H](OC(=O)/C=C\c6ccc(O)cc6)[C@H](O)C(C)(C)[C@@H]5CC[C@]43C)[C@H]12 | 52.1 |
| CC1(C)CC[C@]2(C(=O)O)CC[C@]3(C)C(=CC[C@@H]4[C@@]5(C)CC[C@H](OC(=O)/C=C/c6ccc(O)c(O)c6)C(C)(C)[C@@H]5CC[C@]43C)[C@@H]2C1 [F4-2, 3-O-trans-caffeoyl-oleanolic acid] | 81.4 |
| CC1(C)CC[C@]2(C(=O)O)CC[C@]3(C)C(=CC[C@@H]4[C@@]5(C)C[C@@H](OC(=O)/C=C/c6ccc(O)cc6)[C@H](O)C(C)(C)[C@@H]5CC[C@]43C)[C@@H]2C1 [F2-1, 2-O-trans-p-coumaroyl-maslinic acid] | 39.9 |
| C[C@H]1[C@H](C)CC[C@]2(C(=O)O)CC[C@]3(C)C(=CC[C@@H]4[C@@]5(C)C[C@@H](OC(=O)/C=C/c6ccc(O)cc6)[C@H](O)C(C)(C)[C@@H]5CC[C@]43C)[C@H]12 | 44.4 |

Continue with the next molecule.
Please look at this molecule and report its CC50 at 24 h: CC1(C)CC[C@]2(C(=O)O)CC[C@]3(C)C(=CC[C@@H]4[C@@]5(C)CC[C@H](OC(=O)/C=C/c6ccc(O)cc6)C(C)(C)[C@@H]5CC[C@]43C)[C@@H]2C1 [F7-1, 3-O-trans-p-coumaroyl-oleanolic acid]
39.3

From: paper PMC10705938
